Numbers sourced from ChEMBL document CHEMBL1201862.

tested on: MOLT-4; assay: NCI tumour cell line growth inhibition, 48 h
Activity calls are given as the source filed them. Rule as the data show it: active = GI50 up to about 1.1 µM and inactive = higher.
assay-metric: GI50

Solved entries:
NN1C(=O)C(CCO)S/C1=N/N=C1/SC(CCO)C(=O)N1N (centres undefined)
> 100 µM (inactive)
CCOP(=O)(OCC)OC(C#N)c1ccc(-c2ccccc2)cc1 (centres undefined)
14.2 µM (inactive)
CCOC(=O)c1c(SCCN2CCCC2)n(-c2ccccc2)c(=S)n(-c2ccccc2)c1=O
1.65 µM (inactive)
CC(C)(C)C(=O)C1CC(=O)c2ccccc2C1=O (centres undefined)
27.8 µM (inactive)
O=C(O)[C@@H]1OCCOCCO[C@@H](C(=O)O)[C@H](C(=O)O)OCCOCCO[C@H]1C(=O)O
> 64.3 µM (inactive)
CCOC(=O)CCC(NC(=O)c1ccc(NC(OC)c2nc3cc(C(F)(F)F)ccc3nc2-c2ccccc2)cc1)C(=O)OCC (centres undefined)
2.67 µM (inactive)

Dear reader, for each entry below, please note its GI50.
1. O=C(NC12CC3CC(CC(C3)C1)C2)n1cnc2cncnc21
2. CC(=O)OC1CC2(c3ccccc3)C(=O)c3ccccc3N2O1 (centres undefined)
3. CS(=O)(=O)C(=Cc1ccccc1Cl)S(C)(=O)=O

["33.3 µM (inactive)", "> 100 µM (inactive)", "> 100 µM (inactive)"]

----------
system: LXFL 529; test: NCI tumour cell line growth inhibition, 48 h
Active and inactive are the calls of the source. Rule as the data show it: active = GI50 up to about 1.1 µM and inactive = higher.
assay-metric: GI50

Cc1cc2c(=O)cc(-c3ccncc3)oc2c(C(N)=O)c1C
> 100 µM (inactive)
CCOC(=O)C1=C(OC(OCC)C(CC)[Se]c2ccccc2)CCC1 (stereo unspecified)
18.7 µM (inactive)
N#CC1CC(c2ccccc2)Nc2cc(Cl)ccc2N1 (stereo unspecified)
21 µM (inactive)

Provide GI50 values for the following items, in order.
1. O=c1cccccc1NCCCCCCCCCNc1cccccc1=O
2. CC(C)(C)C(=O)O[C@@H]1COC2C(O)COC21 (stereo partly specified)
3. CNS(=O)(=O)NNS(=O)(=O)c1ccc(OC)cc1
4. COc1cccc2[s+]snc12

["8.97 µM (inactive)", "> 100 µM (inactive)", "> 100 µM (inactive)", "43.3 µM (inactive)"]

Give me GI50 for each of these compounds, listed below.
1. CC1=C(C(=O)O)N2C(=O)[C@@H](NC(=O)C(c3ccccc3)N3CSC(=S)N(C(C)C)C3)C2SC1 (stereo partly specified)
2. O=C(/C=C/c1ccccc1)CC1OC(=O)c2ccccc21 (stereo unspecified)
3. O=C1c2ccccc2OP(=O)(OCC(F)(F)F)OC1(C(F)(F)F)C(F)(F)F (stereo unspecified)
4. O=C1C(=O)N(c2ccc(Cl)cc2)C(=O)C(=O)C1c1nc2ccccc2s1
5. Cc1ccc(S(=O)(=O)N[C@H](C(=O)O)c2ccccc2)cc1
6. NN1C(=O)C(CCO)S/C1=N/N=C1/SC(CCO)C(=O)N1N (stereo unspecified)

1. > 100 µM (inactive)
2. 46.7 µM (inactive)
3. > 100 µM (inactive)
4. > 100 µM (inactive)
5. > 100 µM (inactive)
6. > 100 µM (inactive)

List the reported GI50 of each compound below.
1. CC(C)(C)C1=Cc2cc3cc(C(C)(C)C)[nH]c(=O)c3cc2S(=O)(=O)N1
2. CCCC1N2CCCCC2[C@@H]2c3[nH]c4ccccc4c3CCN12 (stereo partly specified)
3. COCCN1C2=CCCCC2=Nc2c1nc(N)[nH]c2=O

25.2 µM (inactive)
> 100 µM (inactive)
> 100 µM (inactive)

----------
system: HOP-92; test: NCI tumour cell line growth inhibition, 48 h
Activity calls are given as the source filed them. Cut-off read from the data, not from the text of the source: active = GI50 up to about 1.1 µM and inactive = higher.
assay-metric: GI50

Worked examples, 3 molecules total:
Cc1cc(C)nc(NS(=O)(=O)c2ccc(Nc3c4ccccc4nc4c(C(=O)Nc5ccc(S(=O)(=O)N=C(N)N)cc5)cccc34)cc2)n1
37.5 µM (inactive)
CNc1nc2c(C)ccc3nc(N(C)C)[nH]c3c-2n1
> 100 µM (inactive)
OC1(c2cc3ccccc3s2)CCCCC1
18 µM (inactive)

Continue with the next molecule.
Measured GI50, Cc1cc(C)nc(NS(=O)(=O)c2ccc(NNc3c4ccccc4nc4c(C(=O)Nc5ccc(S(=O)(=O)Nc6cc(C)on6)cc5)cccc34)cc2)n1 : 23.7 µM (inactive)

----------
system: UACC-62; test: NCI tumour cell line growth inhibition, 48 h
Activity calls are given as the source filed them. No stated cut-off is given here; in the data, active = GI50 up to about 1.1 µM and inactive = higher.
The reply should name one outcome from active, inactive

// below: answered compounds
O=C1C(=O)N(c2ccc(Cl)cc2)C(=O)C(=O)C1c1nc2ccccc2s1
inactive
Cc1cc(N(CCOS(C)(=O)=O)CCOS(C)(=O)=O)ccc1C=O
inactive
CN1OC(CO)CC12C1CC3CC(C1)CC2C3 (stereo not drawn)
inactive
CC(=O)OC1CC2(c3ccccc3)C(=O)c3ccccc3N2O1 (stereo not drawn)
inactive

Per the assay record, what outcome was assigned to Cc1nn(C(=O)c2ccc(Cl)cc2)c2c1C(c1ccco1)SC(=N)N2 (stereo not drawn) ?
inactive

----------
system: SR; test: NCI tumour cell line growth inhibition, 48 h
Calls of active or inactive are those of the source. Cut-off read from the data, not from the text of the source: active = GI50 up to about 1.1 µM and inactive = higher.
Hello, when you answer, please use one of the following outcomes: y for active, n for inactive

Past entries and their recorded results:
Nc1nc(N)c(N=O)c(OCC2CCCCC2)n1
n
O=c1n(-c2ccc(Cl)c(Cl)c2)c(=O)n(-c2ccc(Cl)c(Cl)c2)c(=O)n1-c1ccc(Cl)c(Cl)c1
n

# fetch the recorded call for CCC/C(=N/NC(=O)C(N)=O)C(CC)C(=O)CCC(=O)N(Cc1ccccc1)Cc1ccccc1 (centres undefined) here
n

Please state the recorded outcome for this molecule: [N-]=[N+]=NC1CC(n2ccc(N)nc2=O)OC1COP(=O)(O)OP(=O)(O)OP(=O)(O)O (centres undefined)
n

Please indicate how the test categorized O=[N+]([O-])c1ccc2c(c1)n1c(N3CCCC3)[n+]3ccccc3c1c1c3ccccn3c(N3CCCC3)[n+]21.[O-][Cl+3]([O-])([O-])[O-].[O-][Cl+3]([O-])([O-])[O-] .
n

Recorded test outcome, item Cc1c2cc[n+](CCN3CCCCC3)cc2c(C)c2c1[nH]c1ccc(O)cc12
y

----------
system: SR; test: NCI tumour cell line growth inhibition, 48 h
The source made the active and inactive calls. Cut-off read from the data, not from the text of the source: active = GI50 up to about 1.1 µM and inactive = higher.
Please answer using one outcome listed in active, inactive

COCCN1C2=CCCCC2=Nc2c1nc(N)[nH]c2=O
inactive
Cc1cc2c(=O)cc(-c3ccncc3)oc2c(C(N)=O)c1C
inactive

# fetch the recorded call for CS(=O)(=O)C(=Cc1ccccc1Cl)S(C)(=O)=O here
inactive

Dear colleague, could you share the recorded outcome for CCCCCc1c(CCCC)c(=O)[nH]c2cc(CNCC(OC)OC)ccc12 when you have a moment?
inactive

Call for entry O=C(O)Cn1ccc(=O)c2c([N+](=O)[O-])cccc21 :
inactive

Recorded test outcome, item CSc1cc(Cl)c(C)cc1S(=O)(=O)NC(=O)NNc1ccc(Cl)cc1
inactive

Which outcome was entered for the compound Cc1cc(C)nc(NS(=O)(=O)c2ccc(NNc3c4ccccc4nc4c(C(=O)Nc5ccc(S(=O)(=O)Nc6cc(C)on6)cc5)cccc34)cc2)n1 in this test?
inactive

----------
system: KM12; test: NCI tumour cell line growth inhibition, 48 h
Active and inactive are the calls of the source. No stated cut-off is given here; in the data, active = GI50 up to about 1.1 µM and inactive = higher.
Field: GI50. Provide a value for each of the compounds that follow.

Consider the reported GI50 for these compounds:
NC(=S)NS(=O)(=O)c1ccc(Cl)cc1
> 100 µM (inactive)
N#C/C(=C\NC(=S)Nc1ccc(S(=O)(=O)Nc2ccccn2)cc1)C(N)=O
> 100 µM (inactive)
COCCOC(=O)c1c(C)[n+]([O-])c2cc(Cl)c(Cl)cc2[n+]1[O-]
10.8 µM (inactive)

Reported GI50 ( COC(=O)CNC(=O)c1cc(C)cc2c1Oc1c(cc(C)cc1C(=O)NCC(=O)OC)S2 ) = 81.7 µM (inactive)

----------
tested on: T47D; test: NCI tumour cell line growth inhibition, 48 h
Activity calls are given as the source filed them. Rule as the data show it: active = GI50 up to about 1.1 µM and inactive = higher.
Respond only with the outcome that fits, drawn from true = active, false = inactive

Please review the entries below; each comes with its answer.
c1ccc(Nc2nnc(Cn3ccc4ccccc43)s2)cc1
false
CC1CN=C(N(C(=O)Nc2ccc(Cl)cc2)c2cccc(Cl)c2)S1 (stereo not given)
false
CC(C)(C)c1cc(OCc2nn3c(Cc4ccccc4)nnc3s2)c(Cl)cc1OCc1nn2c(Cc3ccccc3)nnc2s1
false
O=c1n(-c2ccc(Cl)c(Cl)c2)c(=O)n(-c2ccc(Cl)c(Cl)c2)c(=O)n1-c1ccc(Cl)c(Cl)c1
false
O=C(Nc1cc2c(=O)[nH]c3ccccc3c2oc1=O)c1cnccn1
false
C/C(=N\NC(N)=S)c1ccccn1.OB(O)c1ccccc1
false

In this assay, the call recorded for CC/C(Cl)=N\OC(=O)Nc1ccc(C#N)cc1 was what?
false

Hi, do you know how CSC1=C(C)S/C(=C\c2ccc(/C=C3\SC(C)=C(SC)S3)cc2)S1 came out in this test?
false
